Kindly supply the reported Ki values for the records listed here.
- TEST SYSTEM: mouse OX2R (Mus musculus, UniProt P58308)
- Construct: expressed in transfected cells; host or cells: HEK; cells from GNF, San Diego
- Sequence (P58308 1-460): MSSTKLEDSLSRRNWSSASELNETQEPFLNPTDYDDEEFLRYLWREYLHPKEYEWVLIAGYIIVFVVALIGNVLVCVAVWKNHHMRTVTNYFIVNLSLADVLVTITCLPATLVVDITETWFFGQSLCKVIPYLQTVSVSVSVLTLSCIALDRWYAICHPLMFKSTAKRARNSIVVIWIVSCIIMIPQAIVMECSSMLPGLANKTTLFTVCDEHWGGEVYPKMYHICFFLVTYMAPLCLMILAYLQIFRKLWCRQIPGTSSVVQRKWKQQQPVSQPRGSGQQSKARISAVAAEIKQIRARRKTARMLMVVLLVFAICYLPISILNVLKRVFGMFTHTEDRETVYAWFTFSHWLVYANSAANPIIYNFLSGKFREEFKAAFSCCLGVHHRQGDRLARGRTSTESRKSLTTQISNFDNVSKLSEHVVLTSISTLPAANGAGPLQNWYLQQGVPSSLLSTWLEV
- TEST PROTOCOL: FLIPR orexin A-stimulated calcium accumulation, mouse OX2R
- Format: cell-based
- RUN CONDITIONS: pKi, HEK cells, antagonist incubation 30 min
One number for each entry, in nM.

Cc1ccc(-n2nccn2)c(C(=O)N2CCN(c3nc4cc(Cl)ccc4o3)CC[C@H]2C)c1
10.2

CNC(=O)[C@@H](c1ccccc1)N1CCc2cc(OC)c(OC)cc2[C@@H]1CCc1ccc(C(F)(F)F)cc1 has a reported Ki of 19.1
